Can you tell me Kd for the items I'm about to list?
# testedOn: T1, Human α-parvin-CHC (residues 242–372) (human, UniProt Q9NVD7 242-372)
# T1 chain: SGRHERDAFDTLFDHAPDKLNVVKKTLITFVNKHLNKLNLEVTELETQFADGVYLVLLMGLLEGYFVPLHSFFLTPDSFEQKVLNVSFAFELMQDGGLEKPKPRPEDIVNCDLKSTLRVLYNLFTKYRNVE
# assayName: MST
Where no end group is shown, it is not given here.
Response body: numeric value in µM, unit text excluded.

Ask | Give its Kd value. Item: EDVLDELLQYLGVT (also: N-terminal FITC-Ahx only in labelled form, predicted LD motif of human RALGAPA1; also called RGPA1; source: synthetic peptide, bought: GenScript) [RALGAPA1 LD motif peptide]
Reply | 25.7

Ask | Item under review: ATDELDALLASLTENLID (also: N-terminal FITC-Ahx only in labelled form, predicted LD motif of human EPB41L5 (Band 4.1-like protein 5); also called E41L5; YMO1; source: synthetic peptide, bought: GenScript) [EPB41L5 (Band 4.1-like protein 5) LD motif peptide] . Reported Kd?
Reply | 4

Ask | Give the measured Kd of SASSATRELDELMASLSD (also: N-terminal FITC-Ahx only in labelled form) [Paxillin LD4 peptide] .
Reply | 3.1

Ask | May I ask what Kd has been recorded for AEIDSLTSILADLESS (also: also used as N-terminal FITC-Ahx-labelled form) [LPP (Lipoma-preferred partner) LD motif peptide] ?
Reply | 169

Ask | Please look up its Kd: EAWDLDDILQSLQGQ (also: N-terminal FITC-Ahx only in labelled form, predicted LD motif of human C16orf71; also called CP071; source: synthetic peptide, bought: GenScript) [C16orf71 LD motif peptide]
Reply | 32.3
